- TEST TARGET: DNA gyrase (Escherichia coli) (UniProt P0AES6+P0AES4)
- METHOD DESCRIPTION: In vivo efficacy against Escherichia coli JUHL after oral administration
- Assay type: functional, organism-based
- APPLIED CONDITIONS: Escherichia coli K-12
PROPERTY: ED50 (mg/kg)

Recorded results for 3 compounds are shown here.
>>> assay_value("Cc1c(N2C[C@@H]3CCCN[C@@H]3C2)c(F)cn2c(=O)c(C(=O)O)cc(C3CC3)c12 (stereo in doubt; (S,S)45n)")
1
>>> assay_value("Cc1c(N2C[C@@H]3CCN[C@@H]3C2)c(F)cn2c(=O)c(C(=O)O)cc(C3CC3)c12 (stereo in doubt; 45o)")
2.5
>>> assay_value("CC(NC(=O)C(C)NC1CCN(c2nc3c(-c4ccc(F)cc4F)cc(C(=O)O)c(=O)n3cc2F)C1)C(=O)O (stereo not drawn)")
14.3

[I] Cc1c(N2C[C@H]3CCN[C@H]3C2)c(F)cn2c(=O)c(C(=O)O)cc(C3CC3)c12 (single isomer, unassigned)
[II] Cc1c(N2CC[C@@H]([C@@H](C)N)C2)c(F)cn2c(=O)c(C(=O)O)cc(C3CC3)c12
[III] Cc1c(N2C[C@@H](C)N[C@@H](C)C2)c(F)cn2c(=O)c(C(=O)O)cc(C3CC3)c12
Query block: # sort list by recorded ED50, greatest to least As an answer, provide the labels arranged in the order called for.
Result block: II, III, I
